Data provenance: the supplement of paper PMC9233669

- Tested on: biotinyl-Ile-oxazolone
- experimental protocol: self-aminoacylation, catalytic enhancement (BIO) (fold over background); higher = more active; k-Seq, kA / k0A0; sequences stand for … in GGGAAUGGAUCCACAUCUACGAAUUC…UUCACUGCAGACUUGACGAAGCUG
Fewer inactive variants are shown than the library holds.
Task for the reader: assign each of the following sequences its reported self-aminoacylation.
Answer field: number only, no words.

I'd like to know its self-aminoacylation. The sequence in question is AUUACCCUGGUCAUCGAAUGA [Fam2.1 aminoacylation ribozyme variant] 1

For CUACUUCAACCUAUCGGUCUG [Fam1A.1 aminoacylation ribozyme variant] then? 1.01

For ACACACUUCAAGCAAUGGGUC [Fam1B.1 aminoacylation ribozyme variant] then? 0.996

###

- Tested on: biotinyl-Val-oxazolone
- experimental protocol: self-aminoacylation, catalytic enhancement (BVO) (fold over background); higher = more active; k-Seq, kA / k0A0; sequences stand for … in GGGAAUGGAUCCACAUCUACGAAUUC…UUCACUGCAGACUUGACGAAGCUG
Fewer inactive variants are shown than the library holds.
Task for the reader: assign each of the following sequences its reported self-aminoacylation.
Answer field: number only, no words.

I'd like to know its self-aminoacylation. The sequence in question is AUUACGCUGGUUAUCGAGUGA [Fam2.1 aminoacylation ribozyme variant] 3.68

For CCACACUUCACGCUAUCGGUC [Fam1B.1 aminoacylation ribozyme variant] then? 1.17

For AAUCACCUAGGUCAUCGGGUA [Fam2.2 aminoacylation ribozyme variant] then? 7.24

For GUAAUUCAAACAAUCGGUCUG [Fam1A.1 aminoacylation ribozyme variant] then? 0.938

For AUUACCCUGGACAUAGAGUGA [Fam2.1 aminoacylation ribozyme variant] then? 6.12

For CCACAGUUCAAUCAAUCGGUC [Fam1B.1 aminoacylation ribozyme variant] then? 0.96

For AAGUUAGCUAAUGGUCGCAAG [Fam3.1 aminoacylation ribozyme variant] then? 1.08

For GAGUUUGCUUAUAGUCGCAAG [Fam3.1 aminoacylation ribozyme variant] then? 1.39

For CUAUAUCAAACAAUCGGUCUG [Fam1A.1 aminoacylation ribozyme variant] then? 0.634

For CCACACUUUAAGCAAUCGGAC [Fam1B.1 aminoacylation ribozyme variant] then? 0.839

For AUACACCUAGGUCAUCUGGUG [Fam2.2 aminoacylation ribozyme variant] then? 1.23

For GAGUUUGCGAAUAGUCGCAAG [Fam3.1 aminoacylation ribozyme variant] then? 1.56

For AAGUUUGCUAAUAGUCCCAAU [Fam3.1 aminoacylation ribozyme variant] then? 0.912

For AAGUUUGCUAAGAGUCGCAUG [Fam3.1 aminoacylation ribozyme variant] then? 1.1

For AAGCUUGCUAAUCGUCGCAAG [Fam3.1 aminoacylation ribozyme variant] then? 1.45

For CCACACGUCAAGCAAUCGGUG [Fam1B.1 aminoacylation ribozyme variant] then? 2.78

For AAGUCUGCUAAUAGUCCCAAG [Fam3.1 aminoacylation ribozyme variant] then? 0.893

For CCACACUUCAAGCAGUCGGUC [Fam1B.1 aminoacylation ribozyme variant] then? 0.878

For AUUCACAUAGGCCAUCGGGUG [Fam2.2 aminoacylation ribozyme variant] then? 3.41

For AUACACCUAGGACAUCGGGUG [Fam2.2 aminoacylation ribozyme variant] then? 2.79

For CCGUACUUCAAGCAAUCGGUC [Fam1B.1 aminoacylation ribozyme variant] then? 1.3

For AUUAUCCUGGUCAUCUAGUGA [Fam2.1 aminoacylation ribozyme variant] then? 4.98

For AUUUACCUGGUCAUCGAGUGA [Fam2.1 aminoacylation ribozyme variant] then? 4.29

For CCACAAUUCAAGCAAUCGGUC [Fam1B.1 aminoacylation ribozyme variant] then? 1.16

For CCACACUACAUGCAAUCGGUC [Fam1B.1 aminoacylation ribozyme variant] then? 0.888

For AUUACACUGGACAUCGAGUGA [Fam2.1 aminoacylation ribozyme variant] then? 2.87

For AUUCACCUGGGUCAUCGGGUG [Fam2.2 aminoacylation ribozyme variant] then? 10.4

For CCAGAGUUCAAGCAAUCGGUC [Fam1B.1 aminoacylation ribozyme variant] then? 1.2

###

- Test system: biotinyl-Ile-oxazolone
- experimental protocol: self-aminoacylation, catalytic enhancement (BIO) (fold over background); higher = more active; k-Seq, kA / k0A0; sequences stand for … in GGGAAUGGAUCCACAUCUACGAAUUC…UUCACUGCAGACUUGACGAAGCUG
Variants at the floor of the assay were thinned out.
Given measured self-aminoacylation, output t if it is greater than or equal to 1 and f if not.

Textbook exercise: given the entry AUUACACUGGUCAUCGAGCGA [Fam2.1 aminoacylation ribozyme variant] , state whether its self-aminoacylation is greater than or equal to 1. t

For UUACUUCAAACAAUCGGUCCG [Fam1A.1 aminoacylation ribozyme variant] then? f

For AUUUCCCUGGUCACCGAGUGA [Fam2.1 aminoacylation ribozyme variant] then? t

For CUACUUCAAACAAACAGUCUG [Fam1A.1 aminoacylation ribozyme variant] then? f

For AUUCGCGUAGGUCAUCGGGUG [Fam2.2 aminoacylation ribozyme variant] then? t

###

- Tested on: biotinyl-Val-oxazolone
- experimental protocol: self-aminoacylation, catalytic enhancement (BVO) (fold over background); higher = more active; k-Seq, kA / k0A0; sequences stand for … in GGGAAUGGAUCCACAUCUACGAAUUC…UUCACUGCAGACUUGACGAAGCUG
Variants at the floor of the assay were thinned out.
Task for the reader: assign each of the following sequences its reported self-aminoacylation.
Answer field: number only, no words.

// lookup self-aminoacylation | system=biotinyl-Val-oxazolone | key= AUUCACCUAGGUAAGCGGGUG [Fam2.2 aminoacylation ribozyme variant] 1.48

For AAAUUUGCUAAUAGUAGCAAG [Fam3.1 aminoacylation ribozyme variant] then? 1.27

For CCACACUUCGAGCAAUAGGUC [Fam1B.1 aminoacylation ribozyme variant] then? 0.785

For AUUACCCUGGUCAUCUAGUAA [Fam2.1 aminoacylation ribozyme variant] then? 1.08

For AAGUUUGCUAAGAGUCGCAAU [Fam3.1 aminoacylation ribozyme variant] then? 1.01

For UUACACCUAGGUCAUCGGGUG [Fam2.2 aminoacylation ribozyme variant] then? 2.15

For UUUCACCUAGGACAUCGGGUG [Fam2.2 aminoacylation ribozyme variant] then? 3.19

For UUUACCCUUGUCAUCGAGUGA [Fam2.1 aminoacylation ribozyme variant] then? 3.38

For AUUCACCUAGGUGAUCGGUUG [Fam2.2 aminoacylation ribozyme variant] then? 0.921

For AUUACUCUGGUCAUGGAGUGA [Fam2.1 aminoacylation ribozyme variant] then? 2.05

For CAACACUUCAAGCAAUCGGUG [Fam1B.1 aminoacylation ribozyme variant] then? 2.73

For AUUCAUCAAGGUCAUCGGGUG [Fam2.2 aminoacylation ribozyme variant] then? 5.94

For CCACACUUUAAGCAAUCGGGC [Fam1B.1 aminoacylation ribozyme variant] then? 1.34

For AAGUUUGCUAGUAGUCCCAAG [Fam3.1 aminoacylation ribozyme variant] then? 1.14

For AUUCGCCUAGGUCAGCGGGUG [Fam2.2 aminoacylation ribozyme variant] then? 3.96

For AUUACGCUGGUCAUCGAGGGA [Fam2.1 aminoacylation ribozyme variant] then? 2.03

For AAUCUCCUAGGUCAUCGGGUG [Fam2.2 aminoacylation ribozyme variant] then? 4.51

For CUUCACCUAGAUCAUCGGGUG [Fam2.2 aminoacylation ribozyme variant] then? 2.12

For AUUAGCCAGGUCAUCGAGUGA [Fam2.1 aminoacylation ribozyme variant] then? 3.8

For AUUACCCUGGUAAUCGAGUGG [Fam2.1 aminoacylation ribozyme variant] then? 1.31

For CCACACUUCAAGCAGUCUGUC [Fam1B.1 aminoacylation ribozyme variant] then? 0.478

For AUUCACCUGGGUCAUCGGUUG [Fam2.2 aminoacylation ribozyme variant] then? 1.44

For CCACACAUUAAGCAAUCGGUC [Fam1B.1 aminoacylation ribozyme variant] then? 0.867

For AUUCACUUAGGUCAUCGGAUG [Fam2.2 aminoacylation ribozyme variant] then? 0.714

For CUACAUAAAACAAUCGGUCUG [Fam1A.1 aminoacylation ribozyme variant] then? 0.799

For AAGUGUGCUAUUAGUCGCAAG [Fam3.1 aminoacylation ribozyme variant] then? 1.43

For AAGGUUGCUAGUAGUCGCAAG [Fam3.1 aminoacylation ribozyme variant] then? 1.07

For CCACACUUCAAGCAAUAGUUC [Fam1B.1 aminoacylation ribozyme variant] then? 0.644
